experimental_target: MAPK13 (unphosphorylated) (Homo sapiens, UniProt O15264)
Sequence (O15264 whole entry): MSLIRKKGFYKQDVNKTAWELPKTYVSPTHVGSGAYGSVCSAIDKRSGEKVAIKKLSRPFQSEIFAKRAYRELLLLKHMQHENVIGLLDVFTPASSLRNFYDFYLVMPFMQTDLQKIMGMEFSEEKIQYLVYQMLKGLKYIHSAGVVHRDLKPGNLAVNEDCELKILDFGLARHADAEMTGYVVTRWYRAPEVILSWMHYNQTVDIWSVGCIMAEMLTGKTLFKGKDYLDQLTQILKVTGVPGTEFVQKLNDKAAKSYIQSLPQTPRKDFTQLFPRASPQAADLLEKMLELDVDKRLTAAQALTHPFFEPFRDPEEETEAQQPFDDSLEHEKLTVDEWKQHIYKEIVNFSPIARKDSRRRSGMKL
test_protocol: Differential scanning fluorimetry
measured_parameter: Kd (nM)
Value expressed in nM; do not type the unit.

// query Reported Kd, compound Cn1nc(C(C)(C)C)cc1NC(=O)Nc1ccc(Sc2ccncc2)cc1 [Compound 58] : ____
// result 1900
